# measurement-target: UniProt P56817
# Sequence (P56817 whole entry): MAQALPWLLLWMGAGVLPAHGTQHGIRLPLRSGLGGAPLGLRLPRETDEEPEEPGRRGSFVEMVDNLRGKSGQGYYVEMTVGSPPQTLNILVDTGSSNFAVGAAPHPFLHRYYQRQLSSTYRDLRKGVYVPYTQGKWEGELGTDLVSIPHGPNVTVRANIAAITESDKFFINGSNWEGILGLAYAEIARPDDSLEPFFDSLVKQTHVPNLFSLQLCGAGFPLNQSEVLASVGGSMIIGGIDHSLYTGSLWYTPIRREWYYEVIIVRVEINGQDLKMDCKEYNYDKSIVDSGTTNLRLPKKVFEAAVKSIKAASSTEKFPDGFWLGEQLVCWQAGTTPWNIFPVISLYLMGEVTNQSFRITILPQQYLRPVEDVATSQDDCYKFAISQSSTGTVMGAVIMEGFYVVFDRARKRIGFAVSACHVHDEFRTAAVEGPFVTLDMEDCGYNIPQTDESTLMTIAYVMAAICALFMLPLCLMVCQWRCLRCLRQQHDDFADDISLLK
# run-description: Inhibition of human recombinant BACE1 at 2 uM by FRET assay
Assignment: determine reported inhibition for the given compounds.
Answers are plain numbers, in %.

Examples from the recorded data:
CS(=O)(=O)Oc1cc(C(=O)N[C@@H](Cc2ccccc2)[C@H](O)C(=O)Nc2cccc(-c3nn[nH]n3)c2)nc(C(=O)N2COC[C@@H]2c2ccccc2)c1 = 96
O=C(N[C@@H](Cc1ccccc1)[C@H](O)C(=O)Nc1cccc(-c2nn[nH]n2)c1)c1cccc(C(=O)N2COC[C@@H]2c2ccccc2)n1 = 93
CC(C)(NC(=O)c1cc(OS(C)(=O)=O)cc(C(=O)N[C@@H](Cc2ccccc2)[C@H](O)C(=O)Nc2cccc(-c3nn[nH]n3)c2)n1)c1ccccc1 = 84
CC(C)(NC(=O)c1cccc(C(=O)N[C@@H](Cc2ccccc2)[C@H](O)C(=O)Nc2cccc(-c3nn[nH]n3)c2)n1)c1ccccc1 = 69
C[C@@H](NC(=O)c1cc(=O)cc(C(=O)N[C@@H](Cc2ccccc2)[C@H](O)C(=O)Nc2cccc(-c3nn[nH]n3)c2)o1)c1ccccc1 = 70

Required: inhibition, one value per compound below.
1. C[C@@H](NC(=O)c1cc(=O)cc(C(=O)N[C@@H](Cc2ccccc2)[C@H](O)C(=O)Nc2cccc(-c3nn[nH]n3)c2)[nH]1)c1ccccc1
2. CC(C)(NC(=O)c1cc(=O)cc(C(=O)N[C@@H](Cc2ccccc2)[C@H](O)C(=O)Nc2cccc(-c3nn[nH]n3)c2)o1)c1ccccc1
3. O=C(N[C@@H](Cc1ccccc1)[C@H](O)C(=O)Nc1cccc(-c2nn[nH]n2)c1)c1cc(=O)cc(C(=O)N2COC[C@@H]2c2ccccc2)[nH]1
4. C[C@@H](NC(=O)c1cccc(C(=O)N[C@@H](Cc2ccccc2)[C@H](O)C(=O)Nc2cccc(-c3nn[nH]n3)c2)n1)c1ccccc1
5. O=C(N[C@@H](Cc1ccccc1)[C@H](O)C(=O)Nc1cccc(-c2nn[nH]n2)c1)c1cc(=O)cc(C(=O)N2COC[C@@H]2c2ccccc2)o1
6. CC(C)(NC(=O)c1cc(=O)cc(C(=O)N[C@@H](Cc2ccccc2)[C@H](O)C(=O)Nc2cccc(-c3nn[nH]n3)c2)[nH]1)c1ccccc1

51
81
83
66
96
65
